Answer each item with its documented log10 intrinsic clearance, human liver microsomes.
All values: base-10 log of intrinsic clearance, human liver microsomes in mL/min/kg.

O=c1c2cccnc2ncn1Cc1ccc2c(c1)CCCC2    1.41
CCn1nccc1CNc1nnc(-c2ccc(OC)cc2)o1    0.82
Cc1cc(SCc2ccc(Cl)nc2)nc2ccccc12    2.51
Cc1ccc(CNC(=O)CN2CCC(n3nnc4cc(C)ccc43)CC2)cc1    2.19
Cc1nc(C#N)c(C#N)n1Cc1csc(-c2cccs2)n1    1.95
Cc1c(C(=O)Nc2ccc(N3CCC(N4CCOCC4)CC3)c(C#N)c2)cnn1-c1ccc(Cl)cc1    1.91
O=C1CN(C(=O)c2cccc(Oc3cccc(C(F)(F)F)c3)c2)CCN1    0.72
CNC(=O)Cc1nc(-c2cncc(C)c2)cs1    0.77
CCc1cc(-c2ccc(OC)c3nc(C)ccc23)nc(N2CCOCC2)n1    0.80
Cc1ccc(C(=O)C(=O)NC2CCCC2)cc1    2.02

Hi! Can you tell me log10 intrinsic clearance, human liver microsomes for each of these molecules?
1. Cn1ncc2c1CCc1sc(NC(=O)c3cccnc3)nc1-2
2. OC1(c2cccnc2F)CCN(Cc2ccc(-c3ccc(F)cc3)o2)CC1

Response:
1.22
1.28

Hi! Can you tell me log10 intrinsic clearance, human liver microsomes for each of these molecules?
1. CCc1c(C(=O)N2CC[C@@](O)(CC(C)C)[C@@H](Oc3ccc(F)cc3)C2)[nH]c2ccc(C)cc12
2. Cc1ccc2oc([C@H]3CCN(Cc4cccs4)C3)nc2c1

Response:
1: 2.02; 2: 2.10

###

- condition.parameters: pH 6.8
Answer each item with its documented aqueous solubility.
Answers are plain numbers, in µg/mL.

// worked examples, aqueous solubility included
c1ccc(Cc2nnc(NC3CCOCC3)s2)cc1    34
CCS(=O)(=O)N1CCC(C(=O)N(C)C2CCCCCCC2)CC1    51.4
CC(C)(C)Sc1c(CC(C)(C)C(=O)O)n(Cc2ccc(Cl)cc2)c2ccc(OCc3ccc4ccccc4n3)cc12    6.1
C=CC(=O)Nc1cccc(Sc2nc(Nc3ccc(N4CCN(C)CC4)cc3)ncc2Cl)c1    0.4
CCCn1nccc1NC(=O)c1c(C)noc1C    31.5

Hi! Can you tell me aqueous solubility for each of these compounds?
1. Cc1ccc2nc(C)c(-c3nc(C)nn3CCO)cc2c1
2. CC1(C)CN(C(=O)C2(C(=O)N3CC(C)(C)C3(C)C)CCC2)C1(C)C
3. Cc1cccc2sc(NC(=O)C(C)(C)C)nc12
4. CCc1cnc(CCNc2cncc(Cl)n2)s1
5. Cc1nn(-c2ccccc2)c(C)c1CN

Response:
[27, 75, 22.6, 48, 20.2]

Hi! Can you tell me aqueous solubility for each of these compounds?
1. Cc1n[nH]c(-c2c(C)c3cc(F)ccc3n2C)n1
2. CC(C)CN1C(=O)C(=O)N(Cc2ccccn2)C1=O
3. Cn1cc(C(=O)O)c(-c2cccnc2)n1
4. CCC(Oc1ccccc1)C(=O)Nc1nc2ccccc2[nH]1 (stereo not given)
5. C#CCNC(=O)CN1C(=O)c2ccccc2C1=O
6. Cc1c(C(=O)N2CCC(C(=O)Nc3ccc4c(c3)OCO4)CC2)oc2c(F)cccc12
7. Cc1cnc(NC(=O)c2cc(S(=O)(=O)N(C)C)ccc2N2CCCC2)s1
8. Cc1cccc(N(C)C(=S)Oc2ccc3ccccc3c2)c1

Response:
[23.5, 39.2, 40.8, 11.8, 38.9, 11, 0.21, 0.7]
